- assayRemarks: Dissociation constant, pKa of the compound
- Type: physicochemical
measuredProperty: pKa

CN1CC(C)(c2cccc(NC(=O)c3ccc(Cl)cn3)c2)N=C(N)C1=O (single isomer, unassigned; enantiomer 1): 7.6
CN1CC(N)=NC(C)(c2cccc(NC(=O)c3ccc(C(F)(F)F)cn3)c2)C1=O (stereo not drawn): < 8
CN1CC(N)=N[C@](C)(c2cccc(NC(=O)c3ccc(Cl)cn3)c2)C1=O: < 8
Cc1cnc(C(=O)Nc2cccc(C3(C)N=C(N)CN(C)C3=O)c2)cn1 (stereo not drawn): < 8
CN1CC(N)=NC(C)(c2cccc(NC(=O)c3ccc(C#N)cn3)c2)C1=O (stereo not drawn): < 8
CN1CC(C)(c2cc(NC(=O)c3ccc(Cl)cn3)ccc2F)N=C(N)C1=O (single isomer, unassigned; enantiomer 1): < 8
CN1CC(N)=N[C@@](C)(c2cccc(NC(=O)c3ccc(Cl)cn3)c2)C1=O: < 8

Read the next record carefully.
Give its pKa value. Item: CN1CC(N)=NC(C)(c2cccc(NC(=O)c3ccc(Cl)cn3)c2)C1=O (racemic)
7.8

###

- tgt: Beta-secretase 1 (Homo sapiens)
- assayRemarks: Inhibition of human BACE1-mediated amyloid beta TOT secretion in human SKNBE2 cells expressing human APP695 after 18 hrs by sandwich alphalisa assay
- Format: cell-based
measuredProperty: IC50 (µM)
Give just the number in µM; leave the unit off.

As a guide, the following entries are already answered.
Cc1cnc(C(=O)Nc2cccc(C3(C)N=C(N)CN(C)C3=O)c2)cn1 (stereo unspecified): 1.15
CN1CC(C)(c2cccc(NC(=O)c3ccc(Cl)cn3)c2)N=C(N)C1=O (racemic): 0.107
CN1CC(C)(c2cccc(NC(=O)c3ccc(Cl)cn3)c2)N=C(N)C1=O (single isomer, unassigned; enantiomer 2): 0.085
CN1CC(N)=NC(C)(c2cccc(NC(=O)c3ccc(C#N)cn3)c2)C1=O (stereo unspecified): 0.151

Here is another molecule to look at.
Can you share its IC50? I mean this molecule: CN1CC(N)=NC(C)(c2cccc(NC(=O)c3ccc(C(F)(F)F)cn3)c2)C1=O (stereo unspecified)
0.079

###

- assayRemarks: Drug uptake in mouse brain at 60 mg/kg, sc after 4 hrs
- Assay type: ADME, organism-based
- Design: dose 60 mg/kg, route subcutaneous
- experimentalConditions: read-out: Drug uptake
measuredProperty: concentration at 4 h (ng/g)
Write the answer as a number in ng/g, unit excluded.

Recorded concentration at 4 h of CN1CC(C)(c2cc(NC(=O)c3ccc(Cl)cn3)ccc2F)N=C(N)C1=O (single isomer, unassigned; enantiomer 2) , please.
347

###

Below, each of the compounds is paired with its reported concentration at 2 h value.
- assayRemarks: Plasma concentration in mouse at 30 mg/kg, sc after 2 hrs
- Type: ADME, organism-based
- Set-up: dose 30 mg/kg, route subcutaneous
Answer with a number only, understood to be in ng/mL.

CN1CC(N)=NC(C)(c2cccc(NC(=O)c3ccc(Cl)cn3)c2)C1=O (racemic): 1710

Fill in the blank: the reported concentration at 2 h of CN1CC(C)(c2cccc(NC(=O)c3ccc(Cl)cn3)c2)N=C(N)C1=O (racemic) is ____.
461

###

- tgt: Beta-secretase 1 (Homo sapiens, UniProt P56817)
- Sequence (P56817 whole entry): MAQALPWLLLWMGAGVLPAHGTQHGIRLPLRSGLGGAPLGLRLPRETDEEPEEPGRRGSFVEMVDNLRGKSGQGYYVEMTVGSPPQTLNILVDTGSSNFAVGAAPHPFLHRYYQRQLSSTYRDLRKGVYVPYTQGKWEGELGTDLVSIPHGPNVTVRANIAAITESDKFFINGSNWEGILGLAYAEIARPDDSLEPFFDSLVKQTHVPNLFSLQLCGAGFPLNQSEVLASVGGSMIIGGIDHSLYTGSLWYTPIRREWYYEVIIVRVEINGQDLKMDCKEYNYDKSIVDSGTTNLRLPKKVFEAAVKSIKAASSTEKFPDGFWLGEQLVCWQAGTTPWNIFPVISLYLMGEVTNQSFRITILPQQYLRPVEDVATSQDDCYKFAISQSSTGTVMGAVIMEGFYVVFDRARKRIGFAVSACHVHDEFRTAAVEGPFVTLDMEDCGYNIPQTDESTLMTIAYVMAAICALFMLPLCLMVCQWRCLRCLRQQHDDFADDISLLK
- assayRemarks: Inhibition of human recombinant BACE1 using fluorescent Mca-Ser-Glu-Val-Asn-Leu-Asp-Ala-Glu-Phe-Lys(Dnp)-OH peptide as substrate after 1 hr by spectroflurorimeter analysis
measuredProperty: IC50

// below: answered compounds
CN1CC(N)=NC(C)(c2cccc(NC(=O)c3ccc(C#N)cn3)c2)C1=O (stereo unspecified): 813 nM
CN1CC(C)(c2cccc(NC(=O)c3ccc(Cl)cn3)c2)N=C(N)C1=O (single isomer, unassigned; enantiomer 1): > 30000 nM
CN1CC(N)=NC(C)(c2cccc(NC(=O)c3ccc(C(F)(F)F)cn3)c2)C1=O (stereo unspecified): 1380 nM
CN1CC(C)(c2cccc(NC(=O)c3ccc(Cl)cn3)c2)N=C(N)C1=O (single isomer, unassigned; enantiomer 2): 295 nM
CN1CC(C)(c2cccc(NC(=O)c3ccc(Cl)cn3)c2)N=C(N)C1=O (racemic): 550 nM

Lab note: next compound to report on.
Fill in the recorded IC50 for this compound, with Beta-secretase 1 (Homo sapiens, UniProt P56817) as test system: Cc1cnc(C(=O)Nc2cccc(C3(C)N=C(N)CN(C)C3=O)c2)cn1 (stereo unspecified)
7080 nM

###

- assayRemarks: Drug uptake in mouse brain at 30 mg/kg, sc after 4 hrs
- Type: ADME, organism-based
- Design: dose 30 mg/kg, route subcutaneous
- experimentalConditions: read-out: Drug uptake
measuredProperty: concentration at 4 h (ng/g)
Answer format: numeric, ng/g implied, no suffix.

CN1CC(N)=NC(C)(c2cccc(NC(=O)c3ccc(Cl)cn3)c2)C1=O (racemic): 90

Find the recorded concentration at 4 h belonging to CN1CC(C)(c2cccc(NC(=O)c3ccc(Cl)cn3)c2)N=C(N)C1=O (racemic) and report it.
20.5

###

- tgt: Beta-secretase 1 (Homo sapiens, UniProt P56817)
- assayRemarks: Inhibition of human BACE1-mediated amyloid beta 42 secretion in human SKNBE2 cells expressing human APP695 after 18 hrs by sandwich alphalisa assay
- Type: cell-based
measuredProperty: pIC50
Scale note: pIC50 = -log10(concentration in M).

CN1CC(C)(c2cccc(NC(=O)c3ccc(Cl)cn3)c2)N=C(N)C1=O (single isomer, unassigned; enantiomer 2): 7.08

Let's switch to this molecule now.
What pIC50 value was documented for this molecule, CN1CC(N)=NC(C)(c2cccc(NC(=O)c3ccc(C(F)(F)F)cn3)c2)C1=O (stereo unspecified) ?
7.17

###

- tgt: Beta-secretase 1 (Homo sapiens)
- assayRemarks: Inhibition of human BACE1-mediated amyloid beta 42 secretion in human SKNBE2 cells expressing human APP695 after 18 hrs by sandwich alphalisa assay
- Type: cell-based
Recorded pIC50 by entry
Conceptually, pIC50 converts a concentration in mol/L into minus its log10.

CN1CC(C)(c2cccc(NC(=O)c3ccc(Cl)cn3)c2)N=C(N)C1=O (racemic): 6.94
CN1CC(N)=NC(C)(c2cccc(NC(=O)c3ccc(C#N)cn3)c2)C1=O (centres undefined): 6.73

Here's the next entry for you.
Using the record for Cc1cnc(C(=O)Nc2cccc(C3(C)N=C(N)CN(C)C3=O)c2)cn1 (centres undefined) , report its pIC50.
5.90
